Entries and their measured IC50 follow.
# MEASURED TARGET: EGFR (human)
# MEASUREMENT CONDITIONS: a431
READOUT: IC50

smiles=C=CC(=O)Nc1ccc2ncnc(Nc3cc(Cl)c(Cl)cc3F)c2c1 measured_target="EGFR (human)" recorded_value="6.7 to 20 nM"
smiles=COCC(=O)Nc1ccc2ncnc(Nc3cccc(I)c3)c2c1 measured_target="EGFR (human)" recorded_value="1000 to 5000 nM"
smiles=COc1cc2ncnc(Nc3cc(Cl)c(Cl)cc3F)c2cc1OC measured_target="EGFR (human)" recorded_value="3 to 5 nM"
smiles=C=CC(=O)Nc1cc2c(Nc3cccc(Br)c3)ncnc2cc1N1CCN(C)CC1 measured_target="EGFR (human)" recorded_value="50 to 250 nM"
smiles=COCC(=O)Nc1ccc2ncnc(Nc3cc(Cl)c(Cl)cc3F)c2c1 measured_target="EGFR (human)" recorded_value="1000 to 10000 nM"
